target: Neuronal acetylcholine receptor subunit alpha-7 (Homo sapiens); assay: Displacement of [3H]methyllycaconitine from alpha7 nAChR (unknown origin)
Sequence (P36544 whole entry): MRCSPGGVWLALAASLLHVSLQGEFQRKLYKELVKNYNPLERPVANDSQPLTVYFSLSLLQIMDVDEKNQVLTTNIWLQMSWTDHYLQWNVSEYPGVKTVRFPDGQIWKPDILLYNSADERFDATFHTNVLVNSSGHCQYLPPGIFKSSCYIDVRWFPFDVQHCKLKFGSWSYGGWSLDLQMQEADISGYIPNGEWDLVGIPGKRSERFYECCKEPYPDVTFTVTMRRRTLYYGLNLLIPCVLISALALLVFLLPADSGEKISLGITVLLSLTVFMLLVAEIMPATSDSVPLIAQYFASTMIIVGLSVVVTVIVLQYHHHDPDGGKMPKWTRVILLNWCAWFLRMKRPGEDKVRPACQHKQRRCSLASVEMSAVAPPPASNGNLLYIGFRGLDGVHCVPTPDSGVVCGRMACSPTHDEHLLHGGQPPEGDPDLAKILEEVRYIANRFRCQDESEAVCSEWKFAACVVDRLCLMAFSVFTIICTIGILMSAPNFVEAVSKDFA
Quantity: Ki (µM)
Write down the numeric answer in µM and omit the unit.

Prompt: Please report the recorded Ki for CC(=O)C1=CC[C@@H]2CC[C@H]1N2 .
Response: 100

###

Listed below: Ki values for each entry.
target: Neuronal acetylcholine receptor subunit alpha-7 (Rattus norvegicus); assay: Displacement of [125I]alpha-bungarotoxin from alpha7 nAChR from rat hippocampus
Sequence (Q05941 whole entry): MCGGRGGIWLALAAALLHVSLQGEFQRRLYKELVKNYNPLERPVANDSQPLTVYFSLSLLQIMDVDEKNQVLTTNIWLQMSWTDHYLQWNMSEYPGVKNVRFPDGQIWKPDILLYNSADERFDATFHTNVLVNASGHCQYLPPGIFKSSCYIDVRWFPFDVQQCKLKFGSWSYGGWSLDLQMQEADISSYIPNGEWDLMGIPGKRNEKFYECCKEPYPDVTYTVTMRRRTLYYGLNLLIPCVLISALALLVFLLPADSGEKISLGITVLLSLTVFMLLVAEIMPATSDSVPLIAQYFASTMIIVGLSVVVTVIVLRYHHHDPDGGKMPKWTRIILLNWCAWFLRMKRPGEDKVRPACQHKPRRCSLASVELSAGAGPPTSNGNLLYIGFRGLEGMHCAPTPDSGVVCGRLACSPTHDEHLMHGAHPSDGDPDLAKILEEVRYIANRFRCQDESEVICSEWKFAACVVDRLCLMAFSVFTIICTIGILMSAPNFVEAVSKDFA

Study these solved cases before continuing.
Compound	Ki
O=c1cccc2n1C[C@@H]1CNC[C@H]2C1	0.23 µM
CC(C)C(=O)N[C@H]1CCN2CCCC[C@@H]12 (racemic)	26 µM
CC(C)C(=O)N[C@@H]1CCN2CCCC[C@@H]12 (racemic)	29 µM

# input for lookup
Prompt: Please report the recorded Ki for CCC(C)C(=O)N[C@H]1CCN2CCC[C@H]12 (some centres undefined) .
Response: 40 µM

###

molecular target: Neuronal acetylcholine receptor; alpha4/beta2 (Homo sapiens, UniProt P17787+P43681); assay: Displacement of [3H]epibatidine from alpha4beta2 nAChR (unknown origin)
Sequence (P17787 whole entry): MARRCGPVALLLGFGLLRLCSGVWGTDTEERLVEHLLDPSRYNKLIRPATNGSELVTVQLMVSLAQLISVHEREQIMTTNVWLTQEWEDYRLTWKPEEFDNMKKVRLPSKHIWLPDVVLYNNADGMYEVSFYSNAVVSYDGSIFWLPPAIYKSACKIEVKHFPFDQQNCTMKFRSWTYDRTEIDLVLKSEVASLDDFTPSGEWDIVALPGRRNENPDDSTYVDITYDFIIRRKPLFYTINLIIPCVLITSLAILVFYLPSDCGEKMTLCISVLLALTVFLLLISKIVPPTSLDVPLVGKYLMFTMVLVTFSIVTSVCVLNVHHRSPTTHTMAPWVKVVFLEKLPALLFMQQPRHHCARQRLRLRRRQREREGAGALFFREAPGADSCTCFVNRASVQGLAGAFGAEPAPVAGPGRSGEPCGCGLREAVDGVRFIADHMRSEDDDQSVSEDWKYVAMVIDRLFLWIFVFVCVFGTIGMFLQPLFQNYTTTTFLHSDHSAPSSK
Sequence (P43681 whole entry): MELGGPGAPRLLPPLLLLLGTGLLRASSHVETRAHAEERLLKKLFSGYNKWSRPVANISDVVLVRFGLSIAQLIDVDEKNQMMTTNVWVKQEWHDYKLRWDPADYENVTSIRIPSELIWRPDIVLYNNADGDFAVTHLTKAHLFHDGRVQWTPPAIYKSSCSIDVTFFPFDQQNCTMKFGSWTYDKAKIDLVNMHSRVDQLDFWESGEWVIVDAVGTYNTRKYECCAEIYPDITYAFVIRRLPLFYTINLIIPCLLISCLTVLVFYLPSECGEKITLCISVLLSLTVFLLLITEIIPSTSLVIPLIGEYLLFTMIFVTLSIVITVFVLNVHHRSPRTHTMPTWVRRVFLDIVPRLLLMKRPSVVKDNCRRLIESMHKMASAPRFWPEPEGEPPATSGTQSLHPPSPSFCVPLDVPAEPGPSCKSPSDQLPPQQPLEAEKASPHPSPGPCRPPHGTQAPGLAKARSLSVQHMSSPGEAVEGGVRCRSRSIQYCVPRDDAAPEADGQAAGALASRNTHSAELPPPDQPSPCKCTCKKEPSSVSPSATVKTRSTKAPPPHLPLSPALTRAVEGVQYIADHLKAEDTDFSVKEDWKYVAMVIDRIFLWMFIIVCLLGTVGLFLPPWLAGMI
Quantity: Ki (nM)
Write down the numeric answer in nM and omit the unit.

Prompt: Please report the recorded Ki for CC(=O)C1=CC[C@@H]2CC[C@H]1N2 .
Response: 94

###

biological target: Neuronal acetylcholine receptor; alpha3/beta4 (Homo sapiens, UniProt P30926+P32297); test: Displacement of [3H]epibatidine from human alpha3beta4 nAChR expressed in HEK cells
Sequence (P30926 whole entry): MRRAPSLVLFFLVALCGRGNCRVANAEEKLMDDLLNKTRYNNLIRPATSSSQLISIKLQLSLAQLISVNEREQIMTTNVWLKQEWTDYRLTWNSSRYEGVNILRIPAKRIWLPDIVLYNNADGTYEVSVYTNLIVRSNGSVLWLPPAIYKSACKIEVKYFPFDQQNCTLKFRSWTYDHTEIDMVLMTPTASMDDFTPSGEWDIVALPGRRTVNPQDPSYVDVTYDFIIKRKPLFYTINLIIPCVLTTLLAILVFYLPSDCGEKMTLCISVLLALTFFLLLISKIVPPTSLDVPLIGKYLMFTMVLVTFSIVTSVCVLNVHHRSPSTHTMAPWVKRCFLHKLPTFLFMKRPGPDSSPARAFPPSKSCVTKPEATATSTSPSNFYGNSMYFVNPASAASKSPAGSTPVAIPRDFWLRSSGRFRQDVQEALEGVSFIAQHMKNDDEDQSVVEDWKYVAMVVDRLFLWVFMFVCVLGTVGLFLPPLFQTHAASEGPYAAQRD
Sequence (P32297 whole entry): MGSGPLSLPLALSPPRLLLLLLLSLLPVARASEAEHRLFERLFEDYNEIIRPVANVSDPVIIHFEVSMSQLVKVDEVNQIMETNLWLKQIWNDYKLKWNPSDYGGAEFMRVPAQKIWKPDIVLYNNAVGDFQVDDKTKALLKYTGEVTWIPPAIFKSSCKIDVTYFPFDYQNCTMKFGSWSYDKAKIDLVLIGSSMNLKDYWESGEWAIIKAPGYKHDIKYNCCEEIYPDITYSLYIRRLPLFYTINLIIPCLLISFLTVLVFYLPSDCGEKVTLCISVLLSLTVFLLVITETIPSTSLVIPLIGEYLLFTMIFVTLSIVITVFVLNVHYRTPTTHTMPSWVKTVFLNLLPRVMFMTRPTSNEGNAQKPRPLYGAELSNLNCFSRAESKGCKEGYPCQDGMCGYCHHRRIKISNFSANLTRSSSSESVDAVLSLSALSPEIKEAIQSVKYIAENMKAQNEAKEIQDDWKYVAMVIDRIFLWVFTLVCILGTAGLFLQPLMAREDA
Listed below: pKi values for each entry.
In textbook form, pKi equals minus log to base ten of the concentration in mol/L.

Compound	pKi
CCC(C)C(=O)N[C@H]1CCN2CCC[C@H]12 (some centres not stated)	4.43

# input for lookup
Prompt: Please report the recorded pKi for O=c1cccc2n1C[C@@H]1CNC[C@H]2C1 .
Response: 6.55

###

biological target: Acetylcholine receptor; alpha1/beta1/delta/gamma (Homo sapiens, UniProt P02708+P07510+P11230+Q07001); experiment: Displacement of [125I]alpha-bungarotoxin from human alpha2betagammadelta nAChR
Quantity: Ki

Prompt: Please report the recorded Ki for CCC(C)C(=O)N[C@H]1CCN2CCC[C@H]12 (stereo partly specified) .
Response: > 10 µM

###

biological target: Neuronal acetylcholine receptor; alpha4/beta2 (Rattus norvegicus, UniProt P09483+P12390); experiment: Displacement of [3H]epibatidine from alpha4beta2 nAChR in rat cortex
Sequence (P09483 whole entry): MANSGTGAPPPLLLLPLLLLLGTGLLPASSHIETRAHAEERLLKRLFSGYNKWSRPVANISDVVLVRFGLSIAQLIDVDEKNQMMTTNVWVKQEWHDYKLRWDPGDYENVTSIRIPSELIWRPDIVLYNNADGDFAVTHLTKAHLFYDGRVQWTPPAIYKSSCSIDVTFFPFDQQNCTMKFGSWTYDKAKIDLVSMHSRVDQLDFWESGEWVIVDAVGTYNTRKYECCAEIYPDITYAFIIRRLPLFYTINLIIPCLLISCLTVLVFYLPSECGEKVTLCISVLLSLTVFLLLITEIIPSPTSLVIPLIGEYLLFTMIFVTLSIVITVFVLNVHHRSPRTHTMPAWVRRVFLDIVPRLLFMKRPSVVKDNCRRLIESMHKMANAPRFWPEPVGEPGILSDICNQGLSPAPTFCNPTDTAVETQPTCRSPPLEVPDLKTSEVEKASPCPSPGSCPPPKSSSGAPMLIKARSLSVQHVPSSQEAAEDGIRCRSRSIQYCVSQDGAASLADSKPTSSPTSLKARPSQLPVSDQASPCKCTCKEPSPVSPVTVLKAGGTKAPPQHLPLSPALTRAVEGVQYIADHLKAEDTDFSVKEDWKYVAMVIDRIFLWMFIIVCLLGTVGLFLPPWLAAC
Sequence (P12390 whole entry): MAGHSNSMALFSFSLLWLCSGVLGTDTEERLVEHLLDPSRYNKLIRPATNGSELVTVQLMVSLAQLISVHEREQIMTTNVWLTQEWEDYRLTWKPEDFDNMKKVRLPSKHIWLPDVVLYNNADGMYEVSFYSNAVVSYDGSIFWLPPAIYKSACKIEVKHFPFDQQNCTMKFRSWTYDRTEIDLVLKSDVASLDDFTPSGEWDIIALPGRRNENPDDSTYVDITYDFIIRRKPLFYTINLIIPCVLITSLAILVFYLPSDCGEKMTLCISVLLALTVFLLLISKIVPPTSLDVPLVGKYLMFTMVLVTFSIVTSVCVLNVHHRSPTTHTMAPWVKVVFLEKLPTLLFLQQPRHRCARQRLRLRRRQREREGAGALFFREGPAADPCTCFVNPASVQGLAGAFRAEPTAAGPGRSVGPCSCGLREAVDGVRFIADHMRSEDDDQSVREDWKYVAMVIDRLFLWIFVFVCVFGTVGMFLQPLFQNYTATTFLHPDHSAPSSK
Listed below: Ki values for each entry.
Write down the numeric answer in µM and omit the unit.

Study these solved cases before continuing.
Compound	Ki [µM]
CC(C)C(=O)N[C@@H]1CCN2CCCC[C@@H]12 (racemic)	100
CCC(C)C(=O)N[C@H]1CCN2CCC[C@H]12 (stereo partly drawn)	0.29
CCC(=O)N[C@H]1CCCN2CCCC[C@@H]12 (racemic)	4.44
CCC(=O)N[C@H]1CCCN2CCCC[C@H]12 (racemic)	6.15

Prompt: Please report the recorded Ki for O=c1cccc2n1C[C@@H]1CNC[C@H]2C1 .
Response: 0.0021

Prompt: Please report the recorded Ki for CC(C)C(=O)N[C@H]1CCCN2CCCC[C@@H]12 (racemic) .
Response: 6.81

Prompt: Please report the recorded Ki for CC(C)C(=O)N[C@H]1CCN2CCCC[C@@H]12 (racemic) .
Response: 283

Prompt: Please report the recorded Ki for CC(C)C(=O)N[C@H]1CCCN2CCCC[C@H]12 (racemic) .
Response: 6.05
